These entries and their values trace back to ChEMBL document CHEMBL3091361.

Measured inhibition at 72 h, 50 ug/ml of individual entries
- Test name: Cytotoxicity against human HSF cells at 50 ug/ml after 72 hrs by BrdU incorporation assay relative to control
- Format: cell-based
- Recorded conditions: read-out: GI
Measurement kind: inhibition at 72 h, 50 ug/ml (%)

>>> print(df.to_string())
                                        smi  numeric_result
0      CCOC(=O)Cc1nnc2n(c1=O)CCN2c1ccccc1OC              80
1  CCOC(=O)C/C(=N\N=C1/NCCN1c1ccc(C)cc1)C(=O)OCC              80
2    CCOC(=O)Cc1nnc2n(c1=O)CCN2c1ccc(Cl)cc1              80
3  CCOC(=O)Cc1nnc2n(c1=O)CCN2c1ccc(Cl)c(Cl)c1              70
4  CCOC(=O)C/C(=N\N=C1/NCCN1c1cccc(Cl)c1)C(=O)OCC              90
5    CCOC(=O)Cc1nnc2n(c1=O)CCN2c1cccc(Cl)c1              10
6        CCOC(=O)Cc1nnc2n(c1=O)CCN2c1ccccc1              50
7  CCOC(=O)C/C(=N\N=C1/NCCN1c1ccc(Cl)c(Cl)c1)C(=O)OCC              90
8  CCOC(=O)C/C(=N\N=C1/NCCN1c1ccc(Cl)cc1)C(=O)OCC              90
9     CCOC(=O)Cc1nnc2n(c1=O)CCN2c1ccc(C)cc1              80
